Listed here: items and their measured % positive cells.
- SYSTEM_UNDER_TEST: T1, human CCR8 (human, UniProt P51685 1-355)
- T1 construct: the cells are named under assay; also called hCCR8
- EXPERIMENTAL_DETAILS: flow cytometry, hCCR8 transfected CHOK1 cells
ENDPOINT: % positive cells

BINDER	ENDPOINT	VALUE_REPORTED
3-50 (antibody, V domains shown) VH: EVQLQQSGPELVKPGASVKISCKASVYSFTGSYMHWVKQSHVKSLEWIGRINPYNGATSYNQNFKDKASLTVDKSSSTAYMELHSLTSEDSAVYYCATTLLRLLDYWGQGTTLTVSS VL: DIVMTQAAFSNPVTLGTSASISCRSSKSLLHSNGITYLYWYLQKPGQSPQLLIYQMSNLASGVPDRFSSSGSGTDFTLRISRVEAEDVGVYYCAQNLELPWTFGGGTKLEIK	% positive cells	34.7%
3-46 (antibody, V domains shown) VH: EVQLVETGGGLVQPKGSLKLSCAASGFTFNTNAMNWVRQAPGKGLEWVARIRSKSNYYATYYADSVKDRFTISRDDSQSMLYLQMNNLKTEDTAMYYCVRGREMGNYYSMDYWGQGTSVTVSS VL: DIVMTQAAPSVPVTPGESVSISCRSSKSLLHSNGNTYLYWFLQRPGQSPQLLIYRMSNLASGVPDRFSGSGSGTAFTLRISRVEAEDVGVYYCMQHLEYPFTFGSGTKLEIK	% positive cells	64.7%
